Note to self: these compounds have IC50 reported for Homeodomain-interacting protein kinase 2 (Homo sapiens, UniProt Q9H2X6) in various publications.
parameter: IC50

• CC(=O)Nc1ccc2cnn(-c3cc(NC4CC4)n4ncc(C#N)c4n3)c2c1 = 50 nM
• COC[C@@H](CC(C)C)NC1=N/C(=C\c2ccc3scnc3c2)C(=O)N1 = > 10000 nM
• CC(=O)Nc1ccc2c(c1)c(-c1cc(NC3CC3)n3ncc(C#N)c3n1)cn2CCC(=O)O = 570 nM
• O=C(O)c1ccc2c(c1)cc(Br)c1ccncc12 = < 300 nM
• O=C(Nc1nc2cccc(-c3ccc(CN4CCS(=O)(=O)CC4)cc3)n2n1)C1CC1 = > 10000 nM
• O=C(O)c1ccc2c(c1)cc(NC1CC1)c1ccncc12 = < 300 nM
